Test system: SARS-CoV-2-NLuc in A549-hACE2 cells
Test: microbe, parasite or virus in culture
Type: cell-based
Conditions: Severe acute respiratory syndrome coronavirus 2, 48 h; read-out: MPro EC50
Examples of molecules with documented EC50 follow.
Respond with the bare value in nM.

# example entries with known answers
COc1ccc(Cl)c(-c2cc3[nH]c(=O)n(C4CCNC(=O)C4)c(=O)c3s2)c1 (stereo not shown) :: 77.1
COc1cnc(Cl)c(-c2cc3[nH]c(=O)n(C4CCNC(=O)C4)c(=O)c3s2)c1 (stereo not shown) :: 18600
COc1ccc(Cl)c(-c2cc3c(s2)c(=O)n([C@@H]2CCCNC(=O)C2)c(=O)n3CC#N)c1 :: 5.87
Cc1cc(-c2cccc(Cl)c2-c2cc3[nH]c(=O)n(C4CCNC(=O)C4)c(=O)c3s2)cn2ncnc12 (stereo not shown) :: 1210
COc1cc(-c2cc3c(s2)c(=O)n([C@@H]2CCCNC(=O)C2)c(=O)n3CC(F)F)c(Cl)cc1F :: 34.4

From here, focus on the item given below.
QUERY: # lookup: EC50 of COc1cc(-c2cc3c(s2)c(=O)n([C@H]2CCCNC(=O)C2)c(=O)n3CC#N)c(Cl)cc1F
RESULT: 84.6
